System: XIP peptide (Xip251-270) binding
Experiment: small-molecule binders of XIP peptide, primary screen, biochemical, small-molecule microarray, fluorescence 635/667 nm, 0.1 µg/mL protein (AID 1182)
Conditions: fluorescent protein binding, 635 nm, higher = more signal, called active from +8 up or from −8 down
Would you mind classing the entries by composite z-score? Ranges: low range: < -0.1; mid range: ≥ -0.1 and < 0.1; high range: ≥ 0.1

Past entries and their recorded results:
**Query** Textbook exercise: identify the category of the compound given here, `C=CC[C@]1(C(=O)NCCCOC)N=C(c2ccc(OCCCO)cc2)O[C@H]1c1ccccc1N=[N+]=[N-]` , according to its measured value.
**Result** high range

**Query** Textbook exercise: identify the category of the compound given here, `CN(C)C(=O)[C@@]1(Cc2ccccc2)N=C(c2ccc(OCCCO)cc2)O[C@H]1c1ccccc1N=[N+]=[N-]` , according to its measured value.
**Result** low range

**Query** Textbook exercise: identify the category of the compound given here, `COCCCNC(=O)[C@@]1(Cc2ccccc2)N=C(c2ccc(OCCCO)cc2)O[C@H]1c1ccccc1` , according to its measured value.
**Result** high range

**Query** Textbook exercise: identify the category of the compound given here, `C[N+](C)(C)CCCC[C@@H]1NC(=O)[C@@H]2C[C@H](C(=O)NCCCCCN)[C@H](c3cccc(OCCO)c3)N2C1=O` , according to its measured value.
**Result** low range

**Query** Textbook exercise: identify the category of the compound given here, `CCOC(=O)C=Cc1cc([N+](=O)[O-])ccc1O` , according to its measured value.
**Result** mid range

***
**Query** Textbook exercise: identify the category of the compound given here, C=CCC(OC(C)=O)[C@@H]1[C@@H](N(Cc2ccc(-c3ccccc3)cc2)C(=O)Cc2ccc(F)cc2)c2cc(OCCCO)ccc2N1C(=O)c1ccc(-c2ccccc2)cc1 (stereo partly specified) , according to its measured value.
**Result** low range

**Query** Textbook exercise: identify the category of the compound given here, `CCOC(=O)C[C@H]1[C@H](OC(=O)c2cc3ccccc3oc2=O)[C@@H](NC(=O)C2CCCCC2)c2cc(OCCCO)ccc2N1C(=O)c1ccccc1` , according to its measured value.
**Result** low range

**Query** Textbook exercise: identify the category of the compound given here, COc1cc2c(cc1O)C(C1CC1)N(Cc1cc3c(cc1Br)OCO3)CC2 (stereo unspecified) , according to its measured value.
**Result** high range

**Query** Textbook exercise: identify the category of the compound given here, O=C1C2C=CC(C(O)C3CCCCC3)N(Nc3ccc([N+](=O)[O-])cc3)C2C(=O)N1c1ccccc1 (stereo unspecified) , according to its measured value.
**Result** low range

**Query** Textbook exercise: identify the category of the compound given here, `COc1ccc(C(=O)Nc2ccc(CN3C(=O)[C@@]4(O[C@@H](CC(=O)N5CCC[C@H]5CO)[C@H]([Si](C)(C)c5ccc(OC)cc5)[C@H]4C)c4ccccc43)cc2)cc1` , according to its measured value.
**Result** high range

**Query** Textbook exercise: identify the category of the compound given here, `COC(=O)c1c(CC[C@@H](CO)NC(=O)N[C@@H](C)Cn2cc(C3(O)CCCCC3)nn2)oc(C(C)=O)c1C(=O)OC` , according to its measured value.
**Result** high range
